assayed-target: partially purified rat brain famesyl protein transferase (FPT) (Rattus norvegicus, UniProt Q02293+Q04631)
Construct: partially purified rat brain famesyl protein transferase (FPT); from tissue; host or cells: rat brain
Sequence (Q02293 whole entry, one chain of several): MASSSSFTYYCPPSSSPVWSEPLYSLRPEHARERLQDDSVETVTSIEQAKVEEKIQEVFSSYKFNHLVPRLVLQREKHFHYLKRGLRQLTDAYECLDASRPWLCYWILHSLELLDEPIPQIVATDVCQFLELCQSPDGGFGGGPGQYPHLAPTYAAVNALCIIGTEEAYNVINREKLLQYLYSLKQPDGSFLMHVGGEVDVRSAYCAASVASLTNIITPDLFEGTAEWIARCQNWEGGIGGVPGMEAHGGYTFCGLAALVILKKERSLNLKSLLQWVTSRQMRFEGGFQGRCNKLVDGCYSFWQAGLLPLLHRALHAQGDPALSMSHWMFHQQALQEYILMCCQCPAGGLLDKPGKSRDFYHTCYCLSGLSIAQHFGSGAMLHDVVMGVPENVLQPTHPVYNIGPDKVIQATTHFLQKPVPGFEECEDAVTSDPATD
method-description: In vitro enzyme assay: inhibition of Ras-CVLS farnesylation by farnesyl protein transferase (FPT)
Format: biochemical
recorded-conditions: read-out: FPT Inhibition
Attribute: inhibition at 1.1 µM

compound: O=C(NCc1ccncc1)C1CCN(C2c3ccc(Cl)cc3CCc3cc(Br)cnc32)CC1 (stereo not shown) [Example 3]
value-unit: %
inhibition at 1.1 µM: 21
//
compound: O=C(CC1CCCN(C2c3ccc(Cl)cc3CCc3cc(Br)cnc32)C1)NCc1cccnc1 (stereo not shown) [Example 18]
value-unit: %
inhibition at 1.1 µM: 9
//
compound: O=C(CC1CCCN(C2c3ccc(Cl)cc3CCc3cc(Br)cnc32)C1)Nc1cccnc1 (stereo not shown) [Example 19]
value-unit: %
inhibition at 1.1 µM: 15
//
compound: O=C(NCCc1ccccn1)C1CCN(C2c3ccc(Cl)cc3CCc3cc(Br)cnc32)CC1 (racemic) [Example 6]
value-unit: %
inhibition at 1.1 µM: 9

* * *

Attribute: IC50
assayed-target: partially purified rat brain famesyl protein transferase (FPT) (Rattus norvegicus, UniProt Q02293+Q04631)
Construct: partially purified rat brain famesyl protein transferase (FPT); from tissue; host or cells: rat brain
method-description: In vitro enzyme assay: inhibition of Ras-CVLS farnesylation by farnesyl protein transferase (FPT)
Type: biochemical
recorded-conditions: unit printed as uM (Examples 49-54)
parameter: IC50

molecule: CNC(=O)[C@@H]1CCCN(C2c3ncc(Br)cc3CCc3cc(Cl)cc(Br)c32)C1 (stereo partly drawn) [Example 50]
readout-value: 0.96 µM

molecule: CN(C)CC(=O)N1CCC(CNC(=O)[C@@H]2CCCN(C3c4ncc(Br)cc4CCc4cc(Cl)cc(Br)c43)C2)CC1 (stereo partly drawn) [Example 53]
readout-value: 0.11 µM

molecule: O=C(NCCc1cccnc1)[C@@H]1CCCN(C2c3ncc(Br)cc3CCc3cc(Cl)cc(Br)c32)C1 (stereo partly drawn) [Example 52]
readout-value: 0.081 µM

molecule: O=C(NC1CC1)[C@@H]1CCCN(C2c3ncc(Br)cc3CCc3cc(Cl)cc(Br)c32)C1 (stereo partly drawn) [Example 49]
readout-value: 0.58 µM

molecule: O=C(NCCCN1CCCC1=O)C1CCCN(C2c3ncc(Br)cc3CCc3cc(Cl)cc(Br)c32)C1 (stereo not drawn) [Example 54]
readout-value: 0.1 µM

molecule: O=C(NCc1ccc[n+]([O-])c1)[C@@H]1CCCN(C2c3ncc(Br)cc3CCc3cc(Cl)cc(Br)c32)C1 (single isomer, unassigned) [Example 51]
readout-value: 0.1 µM

* * *

assayed-target: partially purified rat brain famesyl protein transferase (FPT) (Rattus norvegicus, UniProt Q02293+Q04631)
Construct: partially purified rat brain famesyl protein transferase (FPT); from tissue; host or cells: rat brain
method-description: In vitro enzyme assay: inhibition of Ras-CVLS farnesylation by farnesyl protein transferase (FPT)
Format: biochemical
Description: • 1. In vitro enzyme assays: FPT IC50 (inhibition of famesyl protein transferase, in vitro enzyme assay) are determined by the methods disclosed in […] or WO 95/10516. […] Cell-based assay. COS IC50 values refer to the COS cells activity inhibition of Ras processing, are determined by the methods disclosed in […] or WO 95/10516.
pIC50: −log10 of the molar value.
parameter: pIC50

compound: O=C(NCc1cccnc1)C1CCCN(C2c3ccc(Cl)cc3CCc3cc(Br)cnc32)C1 (single isomer, unassigned) [Example 10 Isomer D]
parameter: pIC50
censoring-sign: =
readout-value: 6.73
//
compound: O=C(NCc1cccnc1)C1CCCN(C2c3ncc(Br)cc3CCc3cc(Cl)cc(Br)c32)C1 (stereo not shown) [Example 16]
parameter: pIC50
censoring-sign: =
readout-value: 7.57
//
compound: O=C(NCc1cccnc1)C1CCCCN1C1c2ccc(Cl)cc2CCc2cc(Br)cnc21 (single isomer, unassigned) [Isomer D1 amide]
parameter: pIC50
censoring-sign: =
readout-value: 6.80
//
compound: O=C(NCc1ccccn1)C1CCN(C2c3ccc(Cl)cc3CCc3cc(Br)cnc32)CC1 (stereo not shown)
parameter: pIC50
censoring-sign: =
readout-value: 5.74
//
compound: O=C(NCc1cccnc1)C1CCCN(C2c3ncc(Br)cc3CCc3cc(Cl)cc(Br)c32)C1 (single isomer, unassigned) [Example 17 Isomer A]
parameter: pIC50
censoring-sign: >
readout-value: 8.00
//
compound: O=C(NCc1cccnc1)C1CCCN(C2c3ccc(Cl)cc3CCc3cc(Br)cnc32)C1 (stereo not shown) [Example 10]
parameter: pIC50
censoring-sign: =
readout-value: 6.68
//
compound: NC(=O)NCC1CCN(C(=O)C2CCN(C3c4ccc(Cl)cc4CCc4cc(Br)cnc43)CC2)CC1 (stereo not shown)
parameter: pIC50
censoring-sign: =
readout-value: 6.18

* * *

assayed-target: partially purified rat brain famesyl protein transferase (FPT) (Rattus norvegicus, UniProt Q02293+Q04631)
Construct: partially purified rat brain famesyl protein transferase (FPT); from tissue; host or cells: rat brain
method-description: In vitro enzyme assay: inhibition of Ras-CVLS farnesylation by farnesyl protein transferase (FPT)
Assay type: biochemical
pIC50: −log10 of the molar value.

compound: O=C(Nc1cccnc1)C1CCCN(C2c3ccc(Cl)cc3CCc3cc(Br)cnc32)C1 (centres unmarked)
pIC50: 7.19
--
compound: O=C(CC1CCN(C2c3ncc(Br)cc3CCc3cc(Cl)cc(Br)c32)CC1)NCc1cccnc1 (centres unmarked)
pIC50: 7.38
--
compound: O=C(NCc1cccnc1)C1CCCN(C2c3ccc(Cl)cc3CCc3cc(Br)cnc32)C1 (single isomer, unassigned) [Example 10 Isomer B]
pIC50: 6.71
--
compound: O=C(Nc1ccncc1)C1CCN(C2c3ccc(Cl)cc3CCc3cccnc32)CC1 (centres unmarked)
pIC50: 5.03
--
compound: O=C(NCc1cccnc1)C1CCCCN1C1c2ncc(Br)cc2CCc2cc(Cl)cc(Br)c21 (stereo not drawn) [Isomer C3 amide]
pIC50: 6.52
--
compound: O=C(NCc1cccnc1)C1CCN(C2c3ccc(Cl)cc3CCc3cc(Br)cnc32)CC1 (centres unmarked)
pIC50: 5.89
--
compound: O=C(NCc1cccnc1)C1CCCN(C2c3ccc(Cl)cc3CCc3cc(Br)cnc32)C1 (single isomer, unassigned) [Example 10 Isomer C]
pIC50: 6.75
--
compound: O=C(NCc1cccnc1)C1CCCCN1C1c2ccc(Cl)cc2CCc2cc(Br)cnc21 (single isomer, unassigned) [Isomer C1 amide]
pIC50: 6.52
